Test system: JumpIn-DAT cells
Assay: cells
Settings: Homo sapiens, read-out: EC50 in µM, JumpIn-DAT –dox; fixed pseudo-Hill slope of 1
Where a name gives a salt, the structure may show the parent alone.
measured-parameter: EC50

# input Would you kindly share the measured EC50 for NCCc1ccc(O)c(O)c1 [Dopamine, dopamine hydrochloride] ?
# output 8 µM

---

Test system: JumpIn-DAT cells
Experiment: cells
Conditions: Homo sapiens, read-out: EC50 in µM, JumpIn-DAT +dox pretreated 1 h with 10 µM GBR12909; fixed pseudo-Hill slope of 1
Structures can show the parent of a compound that is named as a salt.
measured-parameter: EC50 (µM)
Express the result in µM but write the number alone.

# input So what's the measured EC50 for this one? NCCc1ccc(O)c(O)c1 [Dopamine, dopamine hydrochloride]
# output 26
